- Subject Of Test: ALDH1A3 (Homo sapiens, UniProt P47895)
- Sequence (P47895 whole entry): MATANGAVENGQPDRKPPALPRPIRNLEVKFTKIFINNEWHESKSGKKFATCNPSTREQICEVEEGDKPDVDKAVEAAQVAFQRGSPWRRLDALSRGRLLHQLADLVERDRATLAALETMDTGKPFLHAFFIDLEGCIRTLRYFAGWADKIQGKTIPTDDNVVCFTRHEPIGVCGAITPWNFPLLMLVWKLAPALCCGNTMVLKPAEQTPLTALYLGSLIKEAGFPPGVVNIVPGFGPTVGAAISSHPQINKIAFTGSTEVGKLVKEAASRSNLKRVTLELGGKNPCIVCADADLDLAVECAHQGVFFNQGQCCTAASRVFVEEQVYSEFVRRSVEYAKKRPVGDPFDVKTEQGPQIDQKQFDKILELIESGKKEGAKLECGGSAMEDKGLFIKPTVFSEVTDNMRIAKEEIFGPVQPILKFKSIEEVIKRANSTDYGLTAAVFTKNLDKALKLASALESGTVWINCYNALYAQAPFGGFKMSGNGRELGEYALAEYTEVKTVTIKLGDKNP
- Method: ALDH1A3 aldehyde oxidation activity assay
- Type: biochemical
Assay Readout: IC50

Entry under test: Cn1c(=O)c2[nH]cnc2n(C)c1=O [Theophylline, reference compound] . Its IC50 was > 100 µM

====

- Subject Of Test: ALDH1A1 (Homo sapiens, UniProt P00352)
- Construct: made in house
- Sequence (P00352 1-501): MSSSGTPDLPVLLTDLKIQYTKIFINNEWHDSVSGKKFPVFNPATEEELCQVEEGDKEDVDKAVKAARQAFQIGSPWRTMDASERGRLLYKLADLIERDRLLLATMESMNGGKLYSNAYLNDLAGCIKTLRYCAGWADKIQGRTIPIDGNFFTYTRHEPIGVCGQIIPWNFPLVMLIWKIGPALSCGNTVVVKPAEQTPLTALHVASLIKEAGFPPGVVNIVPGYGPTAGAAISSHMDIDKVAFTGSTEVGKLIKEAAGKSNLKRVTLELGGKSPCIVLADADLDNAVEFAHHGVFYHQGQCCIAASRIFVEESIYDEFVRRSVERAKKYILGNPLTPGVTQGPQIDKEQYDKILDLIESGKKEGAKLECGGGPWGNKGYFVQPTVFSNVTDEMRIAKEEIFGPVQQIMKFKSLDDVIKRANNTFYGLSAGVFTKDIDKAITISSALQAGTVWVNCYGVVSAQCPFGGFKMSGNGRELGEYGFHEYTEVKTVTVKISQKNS
- Method: Steady-state kinetics, mode of inhibition of ALDH1A1
- Type: biochemical
- Details: varied substrate acetaldehyde; values in nM; read-out: Ki
Assay Readout: Ki (nM)
Quick note: give the figure in nM, leave out the unit.

Short answer on ALDH1A1 (Homo sapiens, UniProt P00352) for Cn1c(=O)c2c(nc(CN3CCC(C(N)=O)CC3)n2CCCc2ccccc2)n(C)c1=O , Ki: 240

====

- Subject Of Test: ALDH2 (Homo sapiens)
- Construct: made in house
- Sequence (P05091 18-517): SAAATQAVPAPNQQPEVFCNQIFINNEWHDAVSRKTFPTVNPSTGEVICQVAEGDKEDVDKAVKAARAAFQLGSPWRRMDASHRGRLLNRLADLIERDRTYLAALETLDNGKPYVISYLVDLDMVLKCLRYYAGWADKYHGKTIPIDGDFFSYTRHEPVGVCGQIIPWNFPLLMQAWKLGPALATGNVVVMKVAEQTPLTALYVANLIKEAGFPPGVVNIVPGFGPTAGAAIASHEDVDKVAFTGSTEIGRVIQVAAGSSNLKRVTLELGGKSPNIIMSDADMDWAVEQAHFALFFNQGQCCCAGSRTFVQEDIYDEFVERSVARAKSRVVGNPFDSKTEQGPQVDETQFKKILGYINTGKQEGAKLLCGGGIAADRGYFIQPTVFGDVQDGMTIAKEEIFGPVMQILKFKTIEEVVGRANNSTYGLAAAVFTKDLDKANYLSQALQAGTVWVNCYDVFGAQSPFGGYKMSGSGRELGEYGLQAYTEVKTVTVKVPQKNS
- Method: ALDH2 aldehyde oxidation activity assay
- Assay type: biochemical
- Details: Table 4; NI/NI(A) at 100 μM compound; read-out: IC50 in μM (SE) ALDH2
Assay Readout: IC50

Before answering, review these 2 worked examples.
Compound | IC50
CC(C)CCn1c(CN2CCN(C(=O)c3ccco3)CC2)nc2c1c(=O)n(C)c(=O)n2C | > 100 µM
Cn1c(=O)c2[nH]cnc2n(C)c1=O [Theophylline, reference compound] | > 100 µM

// next entry
Entry under test: Cn1c(=O)c2c(ncn2C)n(C)c1=O [Caffeine, reference compound] . Its IC50 was > 100 µM

====

- Subject Of Test: ALDH1B1 (Homo sapiens)
- Sequence (P30837 18-517): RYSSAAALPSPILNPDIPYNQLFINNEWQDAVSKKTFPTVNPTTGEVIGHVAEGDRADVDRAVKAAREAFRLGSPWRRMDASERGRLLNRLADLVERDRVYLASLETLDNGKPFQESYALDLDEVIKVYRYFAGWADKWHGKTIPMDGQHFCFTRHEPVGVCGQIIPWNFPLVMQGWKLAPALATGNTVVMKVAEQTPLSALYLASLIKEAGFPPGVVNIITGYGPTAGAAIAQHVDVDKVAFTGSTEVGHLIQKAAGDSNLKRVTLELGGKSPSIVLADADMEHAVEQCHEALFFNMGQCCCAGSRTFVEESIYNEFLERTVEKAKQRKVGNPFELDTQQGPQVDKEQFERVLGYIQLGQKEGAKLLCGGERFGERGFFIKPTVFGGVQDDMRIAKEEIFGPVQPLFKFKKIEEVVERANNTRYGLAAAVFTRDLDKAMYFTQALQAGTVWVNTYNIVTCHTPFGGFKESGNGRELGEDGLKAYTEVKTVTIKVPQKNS
- Method: ALDH1B1 aldehyde oxidation activity assay
- Format: biochemical
- Details: Table 4; NI/NI(A) at 100 μM compound; read-out: IC50 in μM (SE) ALDH1B1
Assay Readout: IC50

Compound | Readout Value
CC(C)CCn1c(CN2CCN(C(=O)c3ccco3)CC2)nc2c1c(=O)n(C)c(=O)n2C | > 100 µM

Entry under test: Cn1c(=O)c2c(ncn2C)n(C)c1=O [Caffeine, reference compound] . Its IC50 was > 100 µM

====

- Subject Of Test: ALDH1A1 (Homo sapiens, UniProt P00352)
- Construct: made in house
- Method: ALDH1A1 aldehyde oxidation (dehydrogenase) activity assay, NADH formation at 340 nm
- Type: biochemical
- Details: 100 μM propionaldehyde, 200 μM NAD+; mean/SEM of three independent assays; read-out: IC50 values with ALDH1A1 for compounds that inhibit dehydrogenase activity
Assay Readout: pIC50
Field pIC50 (float): negative decimal logarithm of the concentration in molar.

Compound | pIC50
Cc1ccc(-c2nnc(N3CCN(C)CC3)c3ccccc23)cc1C | 5.96

Entry under test: C=CCc1cccc(CNc2nc3ccccc3n2CCC)c1O . Its pIC50 was 5.89

Entry under test: NC(=O)CSc1nc2c(sc3ccccc32)c(=O)n1CCCN1CCCC1 [CM037a] . Its pIC50 was 4.64

Entry under test: COc1ccc(S(=O)(=O)N2N=C(c3cccc(NS(C)(=O)=O)c3)CC2c2ccco2)cc1 (stereo not shown) . Its pIC50 was 5.60

Entry under test: CC(C)CCn1c(CN2CCOCC2)nc2c1c(=O)n(C)c(=O)n2C . Its pIC50 was 5.27
